target: BRD9 (Homo sapiens, UniProt Q9H8M2); assay: Degradation of BRD9 (IF), immunofluorescence in MV4-11 cells, 24 hours (Assay Protocol 2); assay type: cell-based; design: A suspension of MV4-11 cells (ATCC CRL-9591) was prepared; host or cells: MV4-11; settings: MV4-11, Table 4; BRD9 degradation, determined according to Assay Protocol 2; read-out: Dmax^2
Sequence (Q9H8M2 whole entry): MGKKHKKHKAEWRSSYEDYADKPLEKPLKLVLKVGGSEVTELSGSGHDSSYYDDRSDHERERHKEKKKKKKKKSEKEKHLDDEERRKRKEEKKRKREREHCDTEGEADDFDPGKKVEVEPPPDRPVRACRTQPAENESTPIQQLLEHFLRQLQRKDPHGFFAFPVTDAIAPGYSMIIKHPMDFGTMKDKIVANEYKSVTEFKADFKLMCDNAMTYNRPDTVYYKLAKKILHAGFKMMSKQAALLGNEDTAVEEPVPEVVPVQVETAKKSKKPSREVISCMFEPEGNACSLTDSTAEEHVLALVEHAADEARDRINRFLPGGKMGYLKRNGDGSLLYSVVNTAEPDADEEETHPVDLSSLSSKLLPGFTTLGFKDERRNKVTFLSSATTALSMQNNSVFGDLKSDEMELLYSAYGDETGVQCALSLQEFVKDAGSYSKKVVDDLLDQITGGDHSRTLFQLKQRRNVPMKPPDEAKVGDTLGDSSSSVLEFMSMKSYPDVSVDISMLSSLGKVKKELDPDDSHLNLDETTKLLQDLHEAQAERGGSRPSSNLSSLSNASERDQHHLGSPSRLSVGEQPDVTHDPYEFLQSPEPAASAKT
Known Dmax of a selection of compounds

# annotated cases, reported Dmax shown
[[record]]
compound = "COc1cc(-c2cn(C)c(=O)c(C)c2C)cc(OC)c1CN(C)C1CCN(C(=O)/C(C#N)=C/C(C)(C)C)CC1"
assay_result = "50 to 70%"

[[record]]
compound = "COc1cc(-c2cn(C)c(=O)c(C)c2C)cc(OC)c1C(=O)N1CCN(C(=O)/C(C#N)=C/C(C)(C)C)CC1"
assay_result = "50 to 70%"

[[record]]
compound = "COc1ccc(C2CC(C(=O)N3CCN(Cc4c(OC)cc(-c5cn(C)c(=O)c(C)c5C)cc4OC)CC3)CN(C(=O)/C(C#N)=C/C(C)(C)C)C2)cc1 (stereo not shown)"
assay_result = "> 70%"

[[record]]
compound = "COc1cc(-c2cn(C)c(=O)c(C)c2C)cc(OC)c1C(=O)N(C)C1CCN(C(=O)/C(C#N)=C/C(C)(C)C)CC1"
assay_result = "30 to 50%"

[[record]]
compound = "COc1cc(-c2cn(C)c(=O)c(C)c2C)cc(OC)c1CN(C)C1CCN(C(=O)/C(C#N)=C/c2cccc(C(F)(F)F)n2)CC1"
assay_result = "> 70%"


Consider the compound COc1cc(-c2cn(C)c(=O)c(C)c2C)cc(OC)c1C(=O)N1CCCN(C(=O)/C(C#N)=C/C(C)(C)C)CC1 and give its measured Dmax.
50 to 70%

Suppose we examine the compound COc1cc(-c2cn(C)c(=O)c(C)c2C)cc(OC)c1CN1CCN(C(=O)/C(C#N)=C/c2cccc(Br)n2)CC1 ; what Dmax value has been reported?
> 70%
